System: SK-MEL-5 melanoma
MEASUREMENT NOTES: NCI tumour cell line growth inhibition, 48 h
PARAMETER: TGI (µM)
Reply with just the number (in µM).

| COMPOUND | VALUE |
| --- | --- |
| C=CCO[C@H]1CO[C@H]2[C@@H]1OC[C@@H]2Oc1ccc(Nc2ccnc(Nc3ccc(O[C@H]4CO[C@H]5[C@@H]4OC[C@@H]5OCC=C)c(Cl)c3)n2)cc1Cl | 2.8 |
| O=C1/C(=C\c2ccccc2)C(NC2CCCCC2)c2ccccc21 (stereo not drawn) | 6.65 |
| CN1CCc2cc(N)cc3c2C1Cc1ccc(O)c(O)c1-3 (stereo not drawn) | 46.5 |

Next, consider the following compound.
Dear colleague, I am looking for the recorded TGI of the following compound: O=C1CCCc2cc3c(cc21)CC1(Cc2ccccc2C1)C3
16.2
